- Assay: Post-procedure plasma exposure (salivation study)
- Assay type: in vivo, Sprague Dawley rats
- Condition parameters: male, Sprague Dawley, rat, in vivo, 1.5 mg/kg, Plasma Concentration 1-Hour Post-procedure (mean value), Compound 1
Measure name: concentration at 1 h (ng/mL)
Answer with a number only, understood to be in ng/mL.

[ask] What value of measured concentration at 1 h is listed for Cc1noc([C@@]23CNC[C@@H]2C3)n1 [Compound 1] ?
[reply] 608
